Sourced from patent EP2047849A1

Molecular target: RSK2 (Homo sapiens)
Sequence (P51812 whole entry): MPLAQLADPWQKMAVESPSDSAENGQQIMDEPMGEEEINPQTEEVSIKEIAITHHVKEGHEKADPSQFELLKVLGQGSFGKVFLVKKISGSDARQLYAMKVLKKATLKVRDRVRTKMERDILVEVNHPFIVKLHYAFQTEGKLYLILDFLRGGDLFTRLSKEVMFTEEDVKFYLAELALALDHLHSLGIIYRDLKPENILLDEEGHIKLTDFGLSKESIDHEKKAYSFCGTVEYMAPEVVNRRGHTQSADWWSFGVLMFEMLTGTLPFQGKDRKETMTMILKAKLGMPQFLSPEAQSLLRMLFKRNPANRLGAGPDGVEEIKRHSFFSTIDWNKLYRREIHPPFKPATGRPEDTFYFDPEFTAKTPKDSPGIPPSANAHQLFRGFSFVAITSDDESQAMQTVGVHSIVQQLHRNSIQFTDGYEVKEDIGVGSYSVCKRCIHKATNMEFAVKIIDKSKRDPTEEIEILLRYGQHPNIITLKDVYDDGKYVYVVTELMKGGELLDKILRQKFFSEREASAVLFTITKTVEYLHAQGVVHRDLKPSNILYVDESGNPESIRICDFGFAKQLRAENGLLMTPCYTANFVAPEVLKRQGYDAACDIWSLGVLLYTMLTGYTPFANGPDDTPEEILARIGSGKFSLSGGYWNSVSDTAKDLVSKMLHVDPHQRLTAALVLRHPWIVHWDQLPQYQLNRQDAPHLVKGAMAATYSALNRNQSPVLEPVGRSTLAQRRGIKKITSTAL
Assay: 33PanQinase Activity Assay (in vitro protein kinase activity assay)
Settings: recombinant purified kinase, 1 µM [γ-33P]-ATP
MEASURED ENDPOINT: pIC50
One number for each entry, as −log10 of the molar value.

Req: # query: pIC50 of entry COc1ccc2[nH]c3c(c4c(c5c6cc(OC)ccc6n(C)c35)C(=O)NC4=O)c2c1
Resp: 6.37

---

Target: UniProtKB Q13237
Sequence (Q13237 whole entry): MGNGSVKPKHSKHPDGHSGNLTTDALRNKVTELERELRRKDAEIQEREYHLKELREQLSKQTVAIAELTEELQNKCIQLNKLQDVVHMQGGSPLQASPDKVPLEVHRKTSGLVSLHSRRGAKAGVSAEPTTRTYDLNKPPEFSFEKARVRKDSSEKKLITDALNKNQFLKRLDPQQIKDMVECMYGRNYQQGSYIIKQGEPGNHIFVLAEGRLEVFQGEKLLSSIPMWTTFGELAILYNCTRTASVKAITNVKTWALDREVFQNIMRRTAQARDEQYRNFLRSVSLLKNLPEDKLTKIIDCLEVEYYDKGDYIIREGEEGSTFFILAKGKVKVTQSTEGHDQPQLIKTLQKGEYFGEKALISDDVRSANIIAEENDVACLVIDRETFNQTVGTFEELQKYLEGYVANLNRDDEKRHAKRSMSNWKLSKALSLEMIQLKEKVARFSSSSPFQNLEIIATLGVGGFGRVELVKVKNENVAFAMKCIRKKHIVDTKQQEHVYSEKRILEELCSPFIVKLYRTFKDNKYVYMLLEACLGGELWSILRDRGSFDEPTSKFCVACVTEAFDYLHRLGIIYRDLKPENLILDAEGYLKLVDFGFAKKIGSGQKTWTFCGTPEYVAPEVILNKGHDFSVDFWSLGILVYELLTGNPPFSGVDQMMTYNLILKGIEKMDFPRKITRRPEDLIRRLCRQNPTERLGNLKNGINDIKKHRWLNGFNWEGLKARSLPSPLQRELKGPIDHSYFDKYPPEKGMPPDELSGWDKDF
Test: 33PanQinase Activity Assay (in vitro protein kinase activity assay)
Details: recombinant purified kinase, 1 µM [γ-33P]-ATP
MEASURED ENDPOINT: IC50 (nM)
Give bare numbers, in nM.

Req: What is its IC50 for UniProtKB Q13237? Entry: COc1ccc2[nH]c3c(c4c(c5c6cc(OC)ccc6n(C)c35)C(=O)NC4=O)c2c1 [PQ-013]
Resp: 67

---

Target: PDGFR-alpha (Homo sapiens)
Construct: made in house; host or cells: Sf9 insect cells (baculovirus)
Sequence (P16234 24-1089): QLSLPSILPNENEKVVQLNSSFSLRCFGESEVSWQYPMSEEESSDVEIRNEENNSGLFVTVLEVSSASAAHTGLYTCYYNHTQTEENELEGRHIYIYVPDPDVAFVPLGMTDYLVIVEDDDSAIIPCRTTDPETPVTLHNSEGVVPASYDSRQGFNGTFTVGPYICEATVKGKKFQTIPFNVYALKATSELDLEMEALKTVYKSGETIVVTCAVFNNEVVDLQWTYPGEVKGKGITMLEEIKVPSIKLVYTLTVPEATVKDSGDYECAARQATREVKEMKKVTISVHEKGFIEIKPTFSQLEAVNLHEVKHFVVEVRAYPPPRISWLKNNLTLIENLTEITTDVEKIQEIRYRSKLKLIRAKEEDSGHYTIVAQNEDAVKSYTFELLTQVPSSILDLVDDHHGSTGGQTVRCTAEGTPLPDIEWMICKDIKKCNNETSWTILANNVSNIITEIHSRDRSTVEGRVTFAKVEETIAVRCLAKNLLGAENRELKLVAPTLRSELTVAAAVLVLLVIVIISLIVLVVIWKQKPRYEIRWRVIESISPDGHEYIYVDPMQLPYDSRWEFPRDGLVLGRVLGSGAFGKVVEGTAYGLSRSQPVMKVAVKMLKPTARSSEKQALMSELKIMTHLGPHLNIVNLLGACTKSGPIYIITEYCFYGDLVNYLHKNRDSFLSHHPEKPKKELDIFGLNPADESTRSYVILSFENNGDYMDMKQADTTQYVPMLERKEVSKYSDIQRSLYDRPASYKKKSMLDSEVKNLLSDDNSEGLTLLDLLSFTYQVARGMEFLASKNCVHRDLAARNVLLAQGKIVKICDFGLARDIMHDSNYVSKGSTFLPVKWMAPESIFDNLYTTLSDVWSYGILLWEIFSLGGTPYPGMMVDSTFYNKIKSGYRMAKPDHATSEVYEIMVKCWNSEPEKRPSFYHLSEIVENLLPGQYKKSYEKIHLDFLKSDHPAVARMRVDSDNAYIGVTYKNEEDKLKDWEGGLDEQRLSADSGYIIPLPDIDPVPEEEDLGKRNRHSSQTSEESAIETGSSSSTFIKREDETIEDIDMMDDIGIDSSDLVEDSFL
Test: 33PanQinase Activity Assay (in vitro protein kinase activity assay)
Assay type: biochemical
Settings: recombinant purified kinase, 1 µM [γ-33P]-ATP
MEASURED ENDPOINT: IC50 (nM)
Give bare numbers, in nM.

Some compounds with known IC50 results, for comparison:
COc1ccc2[nH]c3c(c4c(c5c6cc(OC)ccc6n(C)c35)C(=O)NC4=O)c2c1 = 10
CN(C)CC(O)Cn1c2ccc(O)cc2c2c3c(c4c5cc(O)ccc5n(C)c4c21)C(=O)NC3=O (racemic) = 2000
COc1ccc2c(c1)c1c3c(c4c5ccccc5n(C)c4c1n2CCC#N)C(=O)NC3=O = 110

Could you now look at the following compound, please?
Req: Looking for the measured IC50 of NC(=O)CCn1c2ccccc2c2c3c(c4c5ccccc5[nH]c4c21)C(=O)NC3=O , can you help?
Resp: 130

---

Record form. Attribute: IC50. Fill in for each entry.
Biological target: PDGFR-beta (Homo sapiens)
Sequence (P09619 33-1106): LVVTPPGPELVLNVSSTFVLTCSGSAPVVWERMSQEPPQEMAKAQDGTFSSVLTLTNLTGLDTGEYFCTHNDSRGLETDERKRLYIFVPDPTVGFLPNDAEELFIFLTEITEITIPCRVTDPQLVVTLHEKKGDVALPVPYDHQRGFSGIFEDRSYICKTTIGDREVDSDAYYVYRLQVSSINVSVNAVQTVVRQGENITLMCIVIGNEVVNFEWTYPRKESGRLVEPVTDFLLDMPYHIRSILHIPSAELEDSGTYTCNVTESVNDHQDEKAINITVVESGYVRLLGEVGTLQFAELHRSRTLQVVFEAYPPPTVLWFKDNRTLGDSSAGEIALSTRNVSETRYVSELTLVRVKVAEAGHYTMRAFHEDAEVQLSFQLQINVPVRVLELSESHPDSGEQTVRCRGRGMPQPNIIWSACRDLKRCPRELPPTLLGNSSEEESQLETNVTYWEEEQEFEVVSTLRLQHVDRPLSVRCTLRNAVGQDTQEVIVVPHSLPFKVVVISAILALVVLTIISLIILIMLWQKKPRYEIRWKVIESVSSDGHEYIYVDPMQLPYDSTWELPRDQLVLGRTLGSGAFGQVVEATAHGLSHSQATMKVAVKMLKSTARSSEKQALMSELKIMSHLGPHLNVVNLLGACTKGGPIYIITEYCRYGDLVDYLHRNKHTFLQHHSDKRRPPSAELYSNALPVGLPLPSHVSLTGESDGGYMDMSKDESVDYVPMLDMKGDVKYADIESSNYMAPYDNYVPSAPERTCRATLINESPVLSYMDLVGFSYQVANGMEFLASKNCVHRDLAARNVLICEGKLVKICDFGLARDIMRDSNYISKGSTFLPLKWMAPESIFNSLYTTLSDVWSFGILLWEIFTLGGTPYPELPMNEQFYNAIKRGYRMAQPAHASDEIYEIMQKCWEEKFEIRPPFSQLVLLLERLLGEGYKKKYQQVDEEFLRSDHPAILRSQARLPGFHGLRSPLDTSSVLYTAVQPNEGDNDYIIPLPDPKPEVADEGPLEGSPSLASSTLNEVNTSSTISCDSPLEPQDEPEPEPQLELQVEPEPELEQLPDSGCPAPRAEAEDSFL
Experiment: 33PanQinase Activity Assay (in vitro protein kinase activity assay)
Conditions: recombinant purified kinase, 1 µM [γ-33P]-ATP

COc1ccc2[nH]c3c(c4c(c5c6cc(OC)ccc6n(C)c35)C(=O)NC4=O)c2c1 [PQ-013] = 19 nM
COc1ccc2c(c1)c1c3c(c4c5ccccc5n(C)c4c1n2CCC#N)C(=O)NC3=O [PQ-014] = 130 nM
CN(C)CC(O)Cn1c2ccc(O)cc2c2c3c(c4c5cc(O)ccc5n(C)c4c21)C(=O)NC3=O (racemic) = 700 nM
CN(C)CCCn1c2ccc(O)cc2c2c3c(c4c5cc(O)ccc5n(C)c4c21)C(=O)NC3=O [PQ-012] = < 3 nM
Cn1c2ccccc2c2c3c(c4c5ccccc5[nH]c4c21)C(=O)NC3=O [PQ-042] = > 10000 nM

With those in mind, consider the next compound.
Req: Report IC50 for NC(=O)CCn1c2ccccc2c2c3c(c4c5ccccc5[nH]c4c21)C(=O)NC3=O [PQ-041] tested on PDGFR-beta (Homo sapiens).
Resp: 150 nM

---

Molecular target: UniProtKB Q15349
Sequence (Q15349 whole entry): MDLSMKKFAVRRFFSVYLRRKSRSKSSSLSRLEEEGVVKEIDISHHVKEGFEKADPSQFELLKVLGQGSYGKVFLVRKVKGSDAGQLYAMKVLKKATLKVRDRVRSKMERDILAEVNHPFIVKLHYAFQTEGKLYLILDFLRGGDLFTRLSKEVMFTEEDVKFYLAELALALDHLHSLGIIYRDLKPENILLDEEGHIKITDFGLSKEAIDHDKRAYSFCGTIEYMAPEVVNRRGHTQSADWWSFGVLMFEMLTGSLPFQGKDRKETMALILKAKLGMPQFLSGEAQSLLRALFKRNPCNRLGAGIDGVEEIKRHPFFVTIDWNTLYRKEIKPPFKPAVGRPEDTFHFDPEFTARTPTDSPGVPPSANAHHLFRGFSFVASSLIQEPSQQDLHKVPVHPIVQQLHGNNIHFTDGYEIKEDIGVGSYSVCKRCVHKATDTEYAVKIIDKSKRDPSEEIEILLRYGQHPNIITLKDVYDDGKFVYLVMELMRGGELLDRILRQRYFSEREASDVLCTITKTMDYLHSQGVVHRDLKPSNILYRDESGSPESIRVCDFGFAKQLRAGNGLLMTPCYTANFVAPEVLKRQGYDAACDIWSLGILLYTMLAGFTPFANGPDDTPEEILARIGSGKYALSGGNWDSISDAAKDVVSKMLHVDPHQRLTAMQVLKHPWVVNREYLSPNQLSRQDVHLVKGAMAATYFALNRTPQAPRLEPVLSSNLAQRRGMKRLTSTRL
Assay: 33PanQinase Activity Assay (in vitro protein kinase activity assay)
Conditions: recombinant purified kinase, 1 µM [γ-33P]-ATP
MEASURED ENDPOINT: IC50 (nM)
Give bare numbers, in nM.

Req: I would be grateful if you could share the reported IC50 for COc1ccc2[nH]c3c(c4c(c5c6cc(OC)ccc6n(C)c35)C(=O)NC4=O)c2c1 [PQ-013] .
Resp: 170
